readoutLabel: melting point

> print(dat)
                                   compound   readoutlabel                   val
1  CC1(CN2CCN(C(C)(C)C)C(=O)C2)Cn2cc([N+](=O)[O-])nc2O1 (stereo not drawn)  melting point         193 to 194 °C
2  C[C@]1(CN2CCN(C(=O)NCc3ccc(C(F)(F)F)cc3)CC2)Cn2cc([N+](=O)[O-])nc2O1  melting point       101 to 103.6 °C
3  C[C@]1(CN2CCN(C3CCN(Cc4ccc(OC(F)(F)F)cc4)CC3)CC2)Cn2cc([N+](=O)[O-])nc2O1  melting point         140 to 141 °C
4  CC(C)(C)OC(=O)N1CCN(CC2Cn3cc([N+](=O)[O-])nc3O2)CC1 (stereo not drawn)  melting point  185 to 188 °C (dec.)
5  CN(Cc1ccc(Cl)cc1)C[C@@]1(C)Cn2cc([N+](=O)[O-])nc2O1  melting point       129 to 129.5 °C
6  C[C@]1(COC(=O)N2CCN(N=Cc3ccc(C(F)(F)F)cc3)CC2)Cn2cc([N+](=O)[O-])nc2O1  melting point         176 to 178 °C
7      CN1CCC2(CC1)Cn1cc([N+](=O)[O-])nc1O2  melting point  237 to 239 °C (dec.)
8  O=C(Nc1ccc(Cl)cc1)N1CCC2(CC1)Cn1cc([N+](=O)[O-])nc1O2  melting point  249 to 252 °C (dec.)
9  C[C@]1(COc2nc3ccccc3o2)Cn2cc([N+](=O)[O-])nc2O1  melting point         232 to 233 °C

====

# melting point per record follows
readoutLabel: melting point

> print(dat)
                                    compound   readoutlabel                val
 1  CNC(C1CCN(C(=O)OCc2ccc(OC(F)(F)F)cc2)CC1)[C@]1(C)Cn2cc([N+](=O)[O-])nc2O1 (stereo partly drawn)  melting point    84.2 to 86.8 °C
 2  CNC(C1CCN(C(=O)OC(C)(C)C)CC1)[C@]1(C)Cn2cc([N+](=O)[O-])nc2O1 (stereo partly drawn)  melting point  138.5 to 140.3 °C
 3  CN(C(=O)N1CCN(C[C@@]2(C)Cn3cc([N+](=O)[O-])nc3O2)CC1)c1ccc(C(F)(F)F)cc1  melting point  100.4 to 102.4 °C
 4  CC1(CSc2nnnn2-c2ccccc2)Cn2cc([N+](=O)[O-])nc2O1 (stereo not drawn)  melting point      140 to 147 °C
 5  C[C@]1(CN2CCN(Cc3ccc(C(F)(F)F)cc3)CC2)Cn2cc([N+](=O)[O-])nc2O1  melting point      110 to 112 °C
 6  CC1(CCN2CCN(Cc3ccc(-c4ccccc4)cc3)CC2)Cn2cc([N+](=O)[O-])nc2O1 (stereo not drawn)  melting point      181 to 182 °C
 7  CC1(CNC(=O)OCc2ccccc2)Cn2cc([N+](=O)[O-])nc2O1 (stereo not drawn)  melting point  171.3 to 172.2 °C
 8  CCOC(=O)c1ccc2c(c1)n(CC1(C)Cn3cc([N+](=O)[O-])nc3O1)c(=O)n2C (stereo not drawn)  melting point  265.8 to 266.7 °C
 9  C[C@]1(CN2CCN(S(=O)(=O)CCCc3ccc(Cl)cc3)CC2)Cn2cc([N+](=O)[O-])nc2O1  melting point      150 to 151 °C
10  CC1(N2CCC(C(=O)c3ccc(OC(F)(F)F)cc3)CC2)Cn2cc([N+](=O)[O-])nc2O1 (stereo not drawn)  melting point      165 to 167 °C
11  CC1(Cn2nc(-c3ccc(F)cc3)oc2=O)Cn2cc([N+](=O)[O-])nc2O1 (stereo not drawn)  melting point      188 to 191 °C
12  CC1(Cn2nc(-c3ccc(Cl)cc3)oc2=O)Cn2cc([N+](=O)[O-])nc2O1 (stereo not drawn)  melting point      221 to 222 °C
13  O=[N+]([O-])c1cn2c(n1)O[C@@H](CN1CCN(c3ccc(C(F)(F)F)cc3)CC1)C2  melting point  175.8 to 176.6 °C
14  CC1(Cn2nc(Cc3ccc(Cl)cc3)oc2=O)Cn2cc([N+](=O)[O-])nc2O1 (stereo not drawn)  melting point      151 to 153 °C
15  C[C@]1(CN2CCN(C(=O)CCCCc3ccc(Cl)cc3)CC2)Cn2cc([N+](=O)[O-])nc2O1  melting point      108 to 111 °C
16  CCOC(=O)c1ccccc1NCC1(C)Cn2cc([N+](=O)[O-])nc2O1 (stereo not drawn)  melting point  162.5 to 163.2 °C
17  C[C@]1(COc2ccc(C(=O)N3CCN(Cc4ccc(OC(F)(F)F)cc4)CC3)cc2)Cn2cc([N+](=O)[O-])nc2O1  melting point      155 to 156 °C
18  CC(C)(C)OC(=O)N1CCN(c2ccc(OC[C@@]3(C)Cn4cc([N+](=O)[O-])nc4O3)cc2Cl)CC1  melting point    207 to 209.5 °C
